This collection of values is drawn from patent US20150037328A1.

# maps each entry to its IC50 (M), Calcium Flux Activity (average of 3 experiments)
target: human CXCR4 (chemokine (C-X-C motif) receptor 4) (human, UniProt P61073 1-352); experiment: cell-based or functional assay
Sequence (P61073 whole entry): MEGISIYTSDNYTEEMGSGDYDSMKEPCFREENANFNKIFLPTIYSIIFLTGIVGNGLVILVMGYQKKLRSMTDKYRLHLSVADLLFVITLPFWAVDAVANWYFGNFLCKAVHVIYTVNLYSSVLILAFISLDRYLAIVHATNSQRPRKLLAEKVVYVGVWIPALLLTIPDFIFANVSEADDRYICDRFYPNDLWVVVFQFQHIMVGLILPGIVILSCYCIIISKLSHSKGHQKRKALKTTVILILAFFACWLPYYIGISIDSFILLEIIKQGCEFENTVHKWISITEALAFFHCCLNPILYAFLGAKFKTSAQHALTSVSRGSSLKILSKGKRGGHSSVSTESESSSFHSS
property name: IC50 (M), Calcium Flux Activity (average of 3 experiments)

binder="humanized anti-CXCR4 antibody h3G10.1.91.A58A (antibody, V domains shown) VH: EVQLVESGGGLVQPGGSLRLSCAASGFTFSDYYMSWVRQAPGKGLEWVGFIRHKANFETTEYSTSVKGRFTISRDDSKNSLYLQMNSLKTEDTAVYYCARDLPGFAYWGQGTLVTVSS VL: DIVMTQSPDSLAVSLGERATINCKSSQSLFNSHTRKNYLAWYQQKPGQPPKLLIYWASARGSGVPDRFSGSGSGTDFTLTISSLQAEDVAVYYCKQSFRLRTFGGGTKVEIK" endpoint_value=2.35e-09
binder="humanized anti-CXCR4 antibody h3G10 (antibody, V domains shown) VH: EVQLVESGGGLVQPGGSLRLSCAASGFTFSDYYMSWVRQAPGKGLEWVGFIRHKANGYTTEYSTSVKGRFTISRDDSKNSLYLQMNSLKTEDTAVYYCARDLPGFAYWGQGTLVTVSS VL: DIVMTQSPDSLAVSLGERATINCKSSQSLFNSRTRKNYLAWYQQKPGQPPKLLIYWASARESGVPDRFSGSGSGTDFTLTISSLQAEDVAVYYCKQSFNLRTFGGGTKVEIK" endpoint_value=2e-09
binder="humanized anti-CXCR4 antibody h3G10.A57.A58A (antibody, V domains shown) VH: EVQLVESGGGLVQPGGSLRLSCAASGFTFSDYYMSWVRQAPGKGLEWVGFIRHKANFYTTEYSTSVKGRFTISRDDSKNSLYLQMNSLKTEDTAVYYCARDLPGFAYWGQGTLVTVSS VL: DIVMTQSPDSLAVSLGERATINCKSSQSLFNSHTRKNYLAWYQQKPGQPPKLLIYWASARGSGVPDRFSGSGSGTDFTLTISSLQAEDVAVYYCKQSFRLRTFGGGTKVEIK" endpoint_value=1.31e-09
